# target.under.test: recombinant human CK2 (RRββ-holoenzyme) (Homo sapiens, UniProt P68400)
# Sequence (P68400 whole entry): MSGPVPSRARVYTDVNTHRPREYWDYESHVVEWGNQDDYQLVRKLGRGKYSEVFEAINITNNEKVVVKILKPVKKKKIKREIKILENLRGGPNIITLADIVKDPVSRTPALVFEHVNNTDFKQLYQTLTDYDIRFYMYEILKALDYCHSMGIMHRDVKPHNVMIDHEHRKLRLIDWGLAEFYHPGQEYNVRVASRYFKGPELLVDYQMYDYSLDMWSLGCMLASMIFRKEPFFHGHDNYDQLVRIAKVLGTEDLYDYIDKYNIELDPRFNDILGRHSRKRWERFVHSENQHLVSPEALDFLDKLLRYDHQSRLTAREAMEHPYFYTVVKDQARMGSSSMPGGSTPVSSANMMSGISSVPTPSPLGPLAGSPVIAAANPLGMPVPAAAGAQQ
# Sequence (P67870 whole entry partner): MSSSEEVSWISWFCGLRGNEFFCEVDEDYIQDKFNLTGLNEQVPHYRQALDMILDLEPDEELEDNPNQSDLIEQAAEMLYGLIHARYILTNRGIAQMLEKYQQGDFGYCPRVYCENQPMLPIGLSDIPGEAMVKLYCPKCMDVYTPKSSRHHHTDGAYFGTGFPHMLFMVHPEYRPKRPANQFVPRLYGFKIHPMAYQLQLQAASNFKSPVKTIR
# test.description: CK2 Kinase Assay (33P-ATP, peptide RRRDDDSDDD)
# condition.parameters: final ATP 15 μM, 10 min at 30° C.; read-out: IC50, protein kinase CK2 activity
readout.kind: pIC50
One number for each entry, as −log10 of the molar value.

// query pIC50 value for entry O=C(O)c1cc2c([nH]1)c(Nc1cccc(Cl)c1)nc1ccncc12
7.68

----------
# Tested on: H1299 (lung)
# test.description: In vitro cytotoxic activity (MTT) assay, H1299
# Assay type: cell-based
# condition.parameters: Homo sapiens, NCI-H1299, exposed 96 hours, read-out: IC50, 50% inhibition of cell proliferation
readout.kind: IC50 (nM)
One number for each entry, in nM.

Which IC50 value belongs to O=C(O)c1cc2c([nH]1)c(Nc1cccc(Cl)c1)nc1ccncc12 ?
1100
